# Tested on: NCI-H522 lung
# protocolDescription: NCI-60 one-dose screen, 48 h (100 = growth as untreated, 0 = no growth, -100 = all killed)
# testConditions: 10 µM unless noted
# Experimental: Growth inhibition of the NCI-H522 human Non-Small Cell Lung tumor cell line is measured as a screen for anti-cancer activity. Cells are grown in 96 well plates and exposed to the test compound for 48 hours. Compounds are tested at a single concentration, which is 10^-5 M for most compounds. The reported endpoint is percent growth (GI% or GIPRCNT), where numbers from 0 - 100% represent growth inhibition, and numbers from -100% - 0 represent cell death. […]
The panel holds about 83,000 compounds, 20% with a hit somewhere; the sample as a whole holds those more often. Calls of active or inactive are those of the source. The calls were made as follows: active = growth percent below 10; inactive = the rest.
Quick reference: growth of the listed items.
experimentalReadout: growth

1. CN1CCN(c2nc(NCCCNc3ccnc4cc(Cl)ccc34)c3ccccc3n2)CC1    20.2% (inactive)
2. N#CN1CCC[C@H]1C(=O)N1CCc2c(-c3[nH]nc4ncccc34)cccc21    -51.7% (active)
3. CCCOc1cc2ccccc2cc1C(=O)Nc1nc(N)c2c(ccc3nccc32)[nH]1    -59.6% (active)
4. COc1ccc2c(c1)c(-c1nonc1-c1cn(C)c3ccccc13)cn2C    9.96% (active)
5. C#CCOc1ccc2ncnc(Nc3cccc(CNC(=O)C=C)c3)c2c1    91.9% [8.25 µM] (inactive)

----------
# Test system: CAKI-1 renal
# protocolDescription: NCI-60 one-dose screen, 48 h (100 = growth as untreated, 0 = no growth, -100 = all killed)
# testConditions: 10 µM unless noted
The panel holds about 83,000 compounds, 20% with a hit somewhere; the sample as a whole holds those more often.
experimentalReadout: growth (%)

1. CCCCCCCCCCCCC[N+](C)(C)Cc1ccccc1    76.5
2. COc1ccccc1Nc1nc(-c2cc3cccc(C(F)(F)F)c3oc2=O)cs1    9.18
3. COc1cccc(-c2nc(SCC(=O)Nc3ccc(C(=O)/C=C/c4ccc(OC)c(OC)c4)cc3)[nH]c(=O)c2C#N)c1    88.4
4. Nc1n[nH]c2ccc([C@@H]3Nc4cc5c(cc4[C@H]4C6CCC(C6)[C@@H]34)C(=O)NC5)cc12 (stereo not given in full)    40.5
5. CSc1nc(Nc2cccc(NC(=O)/C(C#N)=C/c3c(Cl)cccc3Cl)c2)c(C#N)c(-c2cccc([N+](=O)[O-])c2)n1    24.5

----------
# Tested on: A549/ATCC NSCLC
# protocolDescription: NCI-60 one-dose screen, 48 h (100 = growth as untreated, 0 = no growth, -100 = all killed)
# testConditions: 10 µM unless noted
Compounds without any hit were thinned out: in the full panel of roughly 83,000, 20% have a hit.
Quick reference: growth of the listed items.
experimentalReadout: growth (%)

1. Cc1c(/C=C/[N+](=O)[O-])ccc2c1[nH]c1ccccc12    87.8
2. CCn1c(Cc2ccccc2Nc2c(Cl)cccc2Cl)nnc1SCC(=O)NN1C(=O)/C(=C/c2cc(OC)c(O)c(OC)c2)SC1=S    60.9
3. O=C1c2cc3c(cc2-c2c1c1ccc(F)cc1c(=O)n2C[C@H](O)[C@H](O)[C@H](O)CO)OCO3    -45.1
4. O=C1c2cccc3cccc(c23)C(=O)N1CCCCCN1CCN(CCCCCOc2ccc(-c3nc4ccc(N5CCOCC5)cc4[nH]3)cc2)CC1    21.3
